For each entry below, report its Plant response rating (0 to 100 scale, 0 is no effect, 100 is complete control) value.
system: pigweed (Amaranthus retroflexus); assay: Test A postemergence, pigweed; assay type: in vivo; settings: 125 g ai/ha, approximately 10 d
Please reply with the number alone, leaving off any unit.

Provide Plant response rating (0 to 100 scale, 0 is no effect, 100 is complete control), tested on pigweed (Amaranthus retroflexus), for CN(C)N=C1[C@H](C(=O)Nc2cccc(F)c2F)[C@@H](c2ccc(C(F)(F)F)cc2)CN1C (relative stereo) [Compound 4] .
70

Provide Plant response rating (0 to 100 scale, 0 is no effect, 100 is complete control), tested on pigweed (Amaranthus retroflexus), for CN1C[C@H](c2ccc(C(F)(F)F)cc2)[C@@H](C(=O)Nc2cccc(F)c2F)C1=NNC(=O)OC(C)(C)C (relative stereo) [Compound 8] .
40

Provide Plant response rating (0 to 100 scale, 0 is no effect, 100 is complete control), tested on pigweed (Amaranthus retroflexus), for CN1C[C@H](c2ccc(C(F)(F)F)cc2)[C@@H](C(=O)Nc2cccc(F)c2F)C1=NN [Compound 2] .
40

Provide Plant response rating (0 to 100 scale, 0 is no effect, 100 is complete control), tested on pigweed (Amaranthus retroflexus), for CNN=C1[C@H](C(=O)Nc2cccc(F)c2F)[C@@H](c2ccc(C(F)(F)F)cc2)CN1C (relative stereo) [Compound 3] .
90

Provide Plant response rating (0 to 100 scale, 0 is no effect, 100 is complete control), tested on pigweed (Amaranthus retroflexus), for CN1C[C@H](c2ccc(C(F)(F)F)cc2)[C@@H](C(=O)Nc2cccc(F)c2F)C1=NNC(=O)C(C)(C)C [Compound 1] .
0

Provide Plant response rating (0 to 100 scale, 0 is no effect, 100 is complete control), tested on pigweed (Amaranthus retroflexus), for CN1C[C@H](c2ccc(C(F)(F)F)cc2)[C@@H](C(=O)Nc2cccc(F)c2F)C1=NN1CCOCC1 (relative stereo) [Compound 7] .
60

Provide Plant response rating (0 to 100 scale, 0 is no effect, 100 is complete control), tested on pigweed (Amaranthus retroflexus), for CC(=O)NN=C1[C@H](C(=O)Nc2cccc(F)c2F)[C@@H](c2ccc(C(F)(F)F)cc2)CN1C (relative stereo) [Compound 5] .
80
